# study-target: Glycogen synthase kinase-3 alpha (Homo sapiens) (UniProt P49840)
# Sequence (P49840 2-483 limits assumed): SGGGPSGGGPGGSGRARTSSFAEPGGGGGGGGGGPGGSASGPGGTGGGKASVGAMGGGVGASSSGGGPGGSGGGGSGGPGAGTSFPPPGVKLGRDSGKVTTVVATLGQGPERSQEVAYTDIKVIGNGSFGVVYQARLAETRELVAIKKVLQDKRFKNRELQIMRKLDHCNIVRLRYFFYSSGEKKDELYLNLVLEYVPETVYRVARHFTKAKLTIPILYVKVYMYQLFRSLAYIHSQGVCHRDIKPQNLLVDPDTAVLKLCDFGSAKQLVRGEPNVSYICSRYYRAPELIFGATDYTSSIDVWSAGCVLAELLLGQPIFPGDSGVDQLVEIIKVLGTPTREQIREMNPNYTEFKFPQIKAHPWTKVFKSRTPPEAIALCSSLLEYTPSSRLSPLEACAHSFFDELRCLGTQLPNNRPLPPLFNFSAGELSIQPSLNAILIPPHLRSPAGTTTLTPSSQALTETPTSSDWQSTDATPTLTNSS
# condition-context: at 1 µM
Exercise: state measured residual activity for each of the compounds provided.
Please state the figure in %; there is no need to write the unit.

The compound O=C1NC(=O)c2c1c1c3ccccc3n3c1c1c2c2ccccc2n1C1CCC3O1 showed residual activity equal to 15

The compound COc1ccc2c(c[n+](C)c3c4cc5c(cc4ccc23)OCO5)c1OC showed residual activity equal to 126

The compound c1cc(-c2cnn3cc(-c4ccc(OCCN5CCCCC5)cc4)cnc23)ccn1 showed residual activity equal to 100

The compound N/C(=N\[N+](=O)[O-])N/N=C\c1ccc(-c2cccc([N+](=O)[O-])c2)o1 showed residual activity equal to 99

The compound CC(C)(C)c1cc(C=C(C#N)C#N)cc(Br)c1O showed residual activity equal to 117
